measured.on: furin, P09958
Sequence (P09958 whole entry): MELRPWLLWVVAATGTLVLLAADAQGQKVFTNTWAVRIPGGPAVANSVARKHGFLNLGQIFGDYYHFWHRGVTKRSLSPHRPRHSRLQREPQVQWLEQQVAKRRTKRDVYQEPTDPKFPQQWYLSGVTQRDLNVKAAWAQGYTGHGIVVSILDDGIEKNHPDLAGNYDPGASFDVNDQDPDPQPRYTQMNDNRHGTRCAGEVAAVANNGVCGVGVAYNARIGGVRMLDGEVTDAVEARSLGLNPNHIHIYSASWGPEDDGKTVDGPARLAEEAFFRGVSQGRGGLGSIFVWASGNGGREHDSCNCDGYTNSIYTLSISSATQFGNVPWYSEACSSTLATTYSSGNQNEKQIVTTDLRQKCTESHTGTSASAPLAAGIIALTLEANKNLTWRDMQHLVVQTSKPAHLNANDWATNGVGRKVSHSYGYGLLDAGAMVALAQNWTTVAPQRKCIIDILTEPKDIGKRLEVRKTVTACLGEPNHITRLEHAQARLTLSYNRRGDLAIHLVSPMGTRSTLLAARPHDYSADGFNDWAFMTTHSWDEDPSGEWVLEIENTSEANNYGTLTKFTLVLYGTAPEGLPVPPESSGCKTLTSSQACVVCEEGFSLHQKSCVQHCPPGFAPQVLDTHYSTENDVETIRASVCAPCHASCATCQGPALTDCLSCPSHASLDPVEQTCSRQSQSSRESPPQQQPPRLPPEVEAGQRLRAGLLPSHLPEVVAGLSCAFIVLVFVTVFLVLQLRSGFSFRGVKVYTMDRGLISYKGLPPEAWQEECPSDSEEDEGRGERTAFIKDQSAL
test.name: furin cleavage Z-score vs untreated control; higher = more cleavage, active = 3.5 or more, inactive = 1 or less, 8 variable residues between constant flanks;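 also: purified furin at 1:10 enzyme:substrate in 50 mM HEPES pH 7.5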
experimental.parameters: 15 min
The list shows a part of the results. The true hit rate is not given.
Returns: one label drawn from 1.0 = active, 0.0 = inactive

Take a look at these entries with their results.
> print(dat)
                 residue.string  group
1  CAKKSRSGRHAGNASASA [FS-1635]    1.0
2   CAAEEDEREIAGNASASA [HC1291]    0.0
3   CAAVTHINSVAGNASASA [HC1428]    0.0
4  CASSKRAEAPAGNASASA [FS-2852]    0.0

**Q:** Lab log entry: CAMSECSQHLAGNASASA [HC1697] — outcome as called in the assay?
**A:** 0.0

**Q:** Lab log entry: CASSKRNRRHAGNASASA [FS-1418] — outcome as called in the assay?
**A:** 1.0

**Q:** Lab log entry: CARKKRVHFHAGNASASA [FS-2271] — outcome as called in the assay?
**A:** 0.0

**Q:** Lab log entry: CARCYRSCETAGNASASA [FS-1688] — outcome as called in the assay?
**A:** 0.0

**Q:** Lab log entry: CADSSVLCECAGNASASA [HC917] — outcome as called in the assay?
**A:** 0.0
